Biological target: HDAC 6 (Homo sapiens, UniProt Q9UBN7)
Sequence (Q9UBN7 whole entry): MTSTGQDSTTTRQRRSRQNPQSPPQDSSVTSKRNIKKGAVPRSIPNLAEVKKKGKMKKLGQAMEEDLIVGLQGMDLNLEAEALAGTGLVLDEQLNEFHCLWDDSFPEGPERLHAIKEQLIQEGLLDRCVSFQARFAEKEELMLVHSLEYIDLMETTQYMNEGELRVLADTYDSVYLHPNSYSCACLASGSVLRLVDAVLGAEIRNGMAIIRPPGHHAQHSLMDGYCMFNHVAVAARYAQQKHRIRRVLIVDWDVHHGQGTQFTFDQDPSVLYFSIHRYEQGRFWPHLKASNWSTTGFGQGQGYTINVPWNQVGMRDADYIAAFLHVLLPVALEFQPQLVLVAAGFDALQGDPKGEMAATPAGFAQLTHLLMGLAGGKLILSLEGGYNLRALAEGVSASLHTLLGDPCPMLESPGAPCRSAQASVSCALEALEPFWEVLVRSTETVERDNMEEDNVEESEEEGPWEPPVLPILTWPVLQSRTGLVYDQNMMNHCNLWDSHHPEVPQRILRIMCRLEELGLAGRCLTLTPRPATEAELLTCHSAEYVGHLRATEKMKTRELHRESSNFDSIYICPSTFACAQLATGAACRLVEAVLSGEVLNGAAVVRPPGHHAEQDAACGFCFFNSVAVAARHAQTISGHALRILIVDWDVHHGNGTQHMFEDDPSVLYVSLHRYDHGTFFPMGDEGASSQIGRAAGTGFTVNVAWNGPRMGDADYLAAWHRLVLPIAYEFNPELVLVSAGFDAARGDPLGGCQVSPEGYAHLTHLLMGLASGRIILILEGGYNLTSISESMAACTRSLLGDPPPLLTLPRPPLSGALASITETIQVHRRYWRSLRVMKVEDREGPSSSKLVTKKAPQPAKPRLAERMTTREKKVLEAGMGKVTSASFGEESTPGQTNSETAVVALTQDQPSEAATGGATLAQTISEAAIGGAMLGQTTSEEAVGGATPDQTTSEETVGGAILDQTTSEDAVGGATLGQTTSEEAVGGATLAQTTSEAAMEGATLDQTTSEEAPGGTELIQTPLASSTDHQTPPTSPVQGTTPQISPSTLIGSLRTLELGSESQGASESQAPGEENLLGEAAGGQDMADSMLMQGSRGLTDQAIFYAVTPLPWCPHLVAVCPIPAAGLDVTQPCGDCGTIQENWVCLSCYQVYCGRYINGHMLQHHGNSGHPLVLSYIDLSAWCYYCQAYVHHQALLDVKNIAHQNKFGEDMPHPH
Experiment: HDAC inhibition by SAMDI mass spectrometry, HDAC 6
Type: biochemical
Conditions: maximum tested concentration 10 μM
readout.type: HDAC 6 inhibition (result in words)

In [3]: df
Out[3]:
                                   compound         test_value
0  Cn1cccc(O)c1=O [Compound 5a, 1-Methyl-3-hydroxypyridin-2-one]  failed to inhibit
1  O=c1c(O)cccn1Cc1ccccc1 [Compound 5b, 1-Benzyl-3-hydroxypyridin-2-one]  failed to inhibit
2  O=c1c(O)cccn1Cc1ccc(-c2ccccc2)cc1 [Compound 5c]  failed to inhibit

* * *

System: T-cell leukemia cell line Jurkat
Assay: Cell viability assay
Format: cell-based
Conditions: Homo sapiens, Jurkat, 72 h, read-out: Cellular IC50(μM) Jurkat
readout.type: IC50

[Q] Sample Oc1ccc[nH]c1=S [Compound 3-HPT, 3-hydroxypyridin-2-thione] — what was its IC50?
[A] > 20 µM

* * *

Target: HDAC 8 (Homo sapiens, UniProt Q9BY41)
Sequence (Q9BY41 whole entry): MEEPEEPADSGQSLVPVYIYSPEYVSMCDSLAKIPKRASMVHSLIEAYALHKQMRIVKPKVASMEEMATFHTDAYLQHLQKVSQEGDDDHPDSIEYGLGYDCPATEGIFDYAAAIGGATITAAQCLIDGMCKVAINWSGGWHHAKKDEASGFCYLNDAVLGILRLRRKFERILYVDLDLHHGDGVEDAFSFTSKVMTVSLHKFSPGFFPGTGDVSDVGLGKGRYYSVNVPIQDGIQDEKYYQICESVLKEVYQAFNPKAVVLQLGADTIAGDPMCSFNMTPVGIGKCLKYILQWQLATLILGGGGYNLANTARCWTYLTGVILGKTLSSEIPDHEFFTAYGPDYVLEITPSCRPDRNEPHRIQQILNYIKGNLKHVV
Experiment: HDAC inhibition by SAMDI mass spectrometry, HDAC 8
Format: biochemical
Conditions: SAMDI; maximum tested concentration 10 μM
readout.type: HDAC 8 inhibition (result in words)

>>> df
                                   compound                           assay_target         test_value
0         O=c1c(O)cccn1Cc1ccc(-c2ccccc2)cc1  HDAC 8 (Homo sapiens, UniProt Q9BY41)  failed to inhibit
1  O=c1c(O)cccn1Cc1ccccc1 [Compound 5b, 1-Benzyl-3-hydroxypyridin-2-one]  HDAC 8 (Homo sapiens, UniProt Q9BY41)  failed to inhibit
2  Cn1cccc(O)c1=O [Compound 5a, 1-Methyl-3-hydroxypyridin-2-one]  HDAC 8 (Homo sapiens, UniProt Q9BY41)  failed to inhibit

* * *

Molecular target: HDAC 1 (Homo sapiens, UniProt Q13547)
Sequence (Q13547 whole entry): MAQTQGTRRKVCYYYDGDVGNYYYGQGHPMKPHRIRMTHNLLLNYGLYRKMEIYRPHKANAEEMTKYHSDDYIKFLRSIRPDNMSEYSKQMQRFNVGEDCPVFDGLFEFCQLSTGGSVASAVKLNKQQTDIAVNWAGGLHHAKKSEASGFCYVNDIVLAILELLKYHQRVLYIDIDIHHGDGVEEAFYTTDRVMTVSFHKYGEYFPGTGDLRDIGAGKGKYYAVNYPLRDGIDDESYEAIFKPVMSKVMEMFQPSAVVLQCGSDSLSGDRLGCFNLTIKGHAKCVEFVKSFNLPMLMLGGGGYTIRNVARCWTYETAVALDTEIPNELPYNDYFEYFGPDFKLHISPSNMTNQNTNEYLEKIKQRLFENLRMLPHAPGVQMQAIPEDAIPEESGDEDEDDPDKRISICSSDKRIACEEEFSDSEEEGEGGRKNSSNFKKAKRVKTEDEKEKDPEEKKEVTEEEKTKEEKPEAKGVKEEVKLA
Assay: HDAC inhibition by SAMDI mass spectrometry, HDAC 1
Format: biochemical
Settings: maximum tested concentration 10 μM
readout.type: HDAC 1 inhibition (result in words)

                                   compound         test_value
0  O=c1c(O)cccn1Cc1ccc(-c2ccccc2)cc1 [Compound 5c]  failed to inhibit
1  Cn1cccc(O)c1=O [Compound 5a, 1-Methyl-3-hydroxypyridin-2-one]  failed to inhibit
2  O=c1c(O)cccn1Cc1ccccc1 [Compound 5b, 1-Benzyl-3-hydroxypyridin-2-one]  failed to inhibit
